# Assay Target: 5-hydroxytryptamine receptor 2A (Homo sapiens, UniProt P28223)
# Sequence (P28223 whole entry): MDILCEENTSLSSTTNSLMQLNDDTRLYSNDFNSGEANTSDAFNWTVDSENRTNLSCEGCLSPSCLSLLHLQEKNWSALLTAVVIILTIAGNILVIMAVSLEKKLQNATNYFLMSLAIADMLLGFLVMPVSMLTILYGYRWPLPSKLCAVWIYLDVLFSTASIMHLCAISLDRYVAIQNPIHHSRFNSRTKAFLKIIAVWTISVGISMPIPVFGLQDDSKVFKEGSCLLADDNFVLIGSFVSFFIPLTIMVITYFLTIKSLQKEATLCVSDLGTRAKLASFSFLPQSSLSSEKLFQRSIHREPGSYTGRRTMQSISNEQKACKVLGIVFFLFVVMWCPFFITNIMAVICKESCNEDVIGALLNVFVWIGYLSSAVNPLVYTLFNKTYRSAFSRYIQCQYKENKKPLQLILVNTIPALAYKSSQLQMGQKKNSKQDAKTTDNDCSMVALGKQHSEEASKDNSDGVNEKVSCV
# Assay Comment: Displacement of [3H]ketanserin from human recombinant 5-HT2A receptor after 60 mins by scintillation counting analysis
Measurement Kind: pKi
When answering, recall that pKi equals minus log10 of the concentration in mol/L, and write that number alone.

In: Please provide the recorded pKi for O=S(=O)(c1cncc2ccccc12)N1CCC[C@H]1CCN1CCN(c2cccc3sccc23)CC1 , tested on 5-hydroxytryptamine receptor 2A (Homo sapiens, UniProt P28223).
Out: 8.05

###

# Assay Comment: Drug level in Wistar rat brain at 3 mg/kg, ip measured after 30 mins by LC-MS/MS analysis
# Format: ADME, organism-based
# Conditions Used: read-out: Drug uptake
Would you mind labelling by concentration at 0.5 h? At or over 200 nM is Satisfied, under is Not satisfied.

Here are 3 compounds together with their reported answers.
                                smiles_data    label_value
0  O=S(=O)(c1cncc2ccccc12)N1CCC[C@@H]1CCN1CCN(c2cccc3sccc23)CC1      Satisfied
1  O=S(=O)(c1cncc2ccccc12)N1CCC[C@H]1CCN1CCN(c2nsc3ccccc23)CC1  Not satisfied
2  O=S(=O)(c1cccc2cnccc12)N1CCC[C@H]1CCN1CCN(c2nsc3ccccc23)CC1  Not satisfied

In: Tell me whether concentration at 0.5 h is at least 200 nM here: O=S(=O)(c1cncc2ccccc12)N1CCC[C@H]1CCN1CCN(c2cccc3sccc23)CC1
Out: Satisfied

In: Identify whether the reported concentration at 0.5 h of the following compound is 200 nM or greater: O=S(=O)(c1cncc2ccccc12)N1CCC[C@@H]1CCN1CCN(c2nsc3ccccc23)CC1
Out: Satisfied

In: API: above_or_equal(metric=concentration at 0.5 h, cutoff=200 nM) for item O=S(=O)(c1cccc2cnccc12)N1CCC[C@@H]1CCN1CCN(c2nsc3ccccc23)CC1
Out: Not satisfied

###

# Assay Target: 5-hydroxytryptamine receptor 1A (Homo sapiens, UniProt P08908)
# Sequence (P08908 whole entry): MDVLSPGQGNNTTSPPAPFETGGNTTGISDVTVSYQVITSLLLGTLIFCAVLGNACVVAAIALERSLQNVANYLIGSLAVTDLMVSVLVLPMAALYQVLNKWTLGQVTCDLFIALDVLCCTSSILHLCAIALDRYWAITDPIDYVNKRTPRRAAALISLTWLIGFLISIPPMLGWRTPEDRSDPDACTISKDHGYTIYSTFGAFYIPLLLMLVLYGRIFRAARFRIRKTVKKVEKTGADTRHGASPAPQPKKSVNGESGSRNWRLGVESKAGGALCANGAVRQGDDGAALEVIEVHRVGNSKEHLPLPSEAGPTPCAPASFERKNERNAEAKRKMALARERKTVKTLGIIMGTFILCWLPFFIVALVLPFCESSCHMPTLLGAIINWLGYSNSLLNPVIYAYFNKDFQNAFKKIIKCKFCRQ
# Assay Comment: Partial agonist activity at human 5-HT1AR expressed in CHO-K1 cells assessed as increase in cAMP accumulation by chemiluminescence-based assay
Parameter: pEC50. Scope: all listed entries.
Interpret pEC50 as the negative base-10 log of the concentration measured in mol/L.

>>> df
                                smiles_data  measurement_kind  recorded_number
0  O=S(=O)(c1cncc2ccccc12)N1CCC[C@@H]1CCN1CCN(c2cccc3sccc23)CC1             pEC50             7.96

Moving on to another compound below.
In: // lookup pEC50 | system=5-hydroxytryptamine receptor 1A (Homo sapiens, UniProt P08908) | key= O=S(=O)(c1cncc2ccccc12)N1CCC[C@H]1CCN1CCN(c2cccc3sccc23)CC1
Out: 7.55
